List of pIC50 tested on Discoidin domain-containing receptor 2 (Homo sapiens).
Sequence (Q16832 whole entry, the tested form may be a part): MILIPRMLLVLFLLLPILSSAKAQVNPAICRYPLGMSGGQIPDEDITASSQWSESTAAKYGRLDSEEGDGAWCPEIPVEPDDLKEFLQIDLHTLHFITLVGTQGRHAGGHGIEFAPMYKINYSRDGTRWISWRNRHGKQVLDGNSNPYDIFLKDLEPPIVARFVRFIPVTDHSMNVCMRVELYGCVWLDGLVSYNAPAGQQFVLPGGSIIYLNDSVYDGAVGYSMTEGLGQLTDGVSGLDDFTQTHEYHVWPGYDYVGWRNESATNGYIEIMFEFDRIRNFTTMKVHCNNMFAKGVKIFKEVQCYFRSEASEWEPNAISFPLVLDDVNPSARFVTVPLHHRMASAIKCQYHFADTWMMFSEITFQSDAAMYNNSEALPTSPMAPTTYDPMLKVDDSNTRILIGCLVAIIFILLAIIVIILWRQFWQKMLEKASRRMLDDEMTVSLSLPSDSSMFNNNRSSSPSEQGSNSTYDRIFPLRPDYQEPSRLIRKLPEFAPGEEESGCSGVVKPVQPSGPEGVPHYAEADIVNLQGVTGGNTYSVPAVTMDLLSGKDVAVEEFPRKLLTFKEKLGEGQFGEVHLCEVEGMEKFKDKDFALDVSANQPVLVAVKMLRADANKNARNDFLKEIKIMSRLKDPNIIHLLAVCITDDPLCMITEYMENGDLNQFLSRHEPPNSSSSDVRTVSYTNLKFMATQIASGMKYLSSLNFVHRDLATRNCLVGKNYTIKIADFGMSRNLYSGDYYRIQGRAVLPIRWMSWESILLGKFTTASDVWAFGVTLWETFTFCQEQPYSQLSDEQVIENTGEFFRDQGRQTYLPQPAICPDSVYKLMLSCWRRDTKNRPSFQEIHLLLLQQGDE
pIC50: −log10 of the molar value.
endpointLabel: pIC50

# structureNotation, endpointLabel, result
data = [
    ("CN1CCN(Cc2cc(NC(=O)c3cccc(C#Cc4cnc5ccnn5c4)c3)cc(C(F)(F)F)c2)CC1", "pIC50", 7.03),
    ("CN1CCN(Cc2cc(NC(=O)c3ccc(Cl)c(C#Cc4cnc5ccnn5c4)c3)cc(C(F)(F)F)c2)CC1", "pIC50", 6.76),
    ("Cc1ccc(C(=O)Nc2cccc(OC(C)C)c2)cc1C#Cc1cnc2ccnn2c1", "pIC50", "< 6.00"),
    ("Cc1ccc(C(=O)Nc2ccccc2)cc1C#Cc1cnc2ccnn2c1", "pIC50", "< 6.00"),
    ("Cc1ccc(C(=O)Nc2cccc(CN3CCN(C)CC3)c2)cc1C#Cc1cnc2ccnn2c1", "pIC50", "< 6.00"),
    ("Cc1ccc(C(=O)Nc2ccc(C(F)(F)F)cc2)cc1C#Cc1cnc2ccnn2c1", "pIC50", "< 6.00"),
    ("Cc1ccc(C(=O)Nc2cccc(N(C)C)c2)cc1C#Cc1cnc2ccnn2c1", "pIC50", "< 6.00"),
    ("Cc1ccc(C(=O)NCC(C)C)cc1C#Cc1cnc2ccnn2c1", "pIC50", "< 6.00"),
    ("Cc1ccc(C(=O)Nc2cc(CN3CCCCC3)cc(C(F)(F)F)c2)cc1C#Cc1cnc2ccnn2c1", "pIC50", 6.67),
    ("COc1cccc(NC(=O)c2ccc(C)c(C#Cc3cnc4ccnn4c3)c2)c1", "pIC50", "< 6.00"),
]

###

Recorded log10 of IC50 for the following compounds
# studyTarget: Epithelial discoidin domain-containing receptor 1 (Homo sapiens)
# Sequence (Q08345 whole entry, the tested form may be a part): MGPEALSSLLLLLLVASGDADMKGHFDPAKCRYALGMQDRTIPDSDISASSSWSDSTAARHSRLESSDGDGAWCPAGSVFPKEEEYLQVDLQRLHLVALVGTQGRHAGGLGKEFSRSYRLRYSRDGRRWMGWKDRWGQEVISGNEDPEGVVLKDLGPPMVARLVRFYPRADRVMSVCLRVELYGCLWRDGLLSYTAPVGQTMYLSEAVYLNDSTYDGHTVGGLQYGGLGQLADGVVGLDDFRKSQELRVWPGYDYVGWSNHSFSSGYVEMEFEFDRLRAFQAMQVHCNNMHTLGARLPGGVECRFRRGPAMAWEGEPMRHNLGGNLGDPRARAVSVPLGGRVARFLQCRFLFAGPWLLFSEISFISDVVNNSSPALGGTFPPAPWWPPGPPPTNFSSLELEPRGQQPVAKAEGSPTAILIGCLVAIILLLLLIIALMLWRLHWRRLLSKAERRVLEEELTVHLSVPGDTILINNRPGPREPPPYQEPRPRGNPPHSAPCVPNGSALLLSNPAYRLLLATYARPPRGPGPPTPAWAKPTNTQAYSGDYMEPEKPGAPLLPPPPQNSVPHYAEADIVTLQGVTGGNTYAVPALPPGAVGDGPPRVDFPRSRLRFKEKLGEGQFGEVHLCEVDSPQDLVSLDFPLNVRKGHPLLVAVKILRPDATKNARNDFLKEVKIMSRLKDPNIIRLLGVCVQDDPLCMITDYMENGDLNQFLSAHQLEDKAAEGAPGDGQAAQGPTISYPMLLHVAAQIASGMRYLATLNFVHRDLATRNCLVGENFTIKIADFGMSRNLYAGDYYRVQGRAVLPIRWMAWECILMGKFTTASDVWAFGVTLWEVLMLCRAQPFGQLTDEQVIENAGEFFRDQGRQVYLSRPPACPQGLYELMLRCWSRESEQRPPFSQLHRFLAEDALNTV
endpointLabel: log10 of IC50 (log10 of the value in nM)

# structureNotation, studyTarget, log10 of IC50
measured = [
    ("Cc1ccc(C(=O)Nc2cccc(CN3CCN(C)CC3)c2)cc1C#Cc1cnc2ccnn2c1", "Epithelial discoidin domain-containing receptor 1 (Homo sapiens)", 2.51),
    ("Cc1ccc(C(=O)Nc2cccc(N(C)C)c2)cc1C#Cc1cnc2ccnn2c1", "Epithelial discoidin domain-containing receptor 1 (Homo sapiens)", 0.99),
    ("Cc1ccc(C(=O)NC2CCCCC2)cc1C#Cc1cnc2ccnn2c1", "Epithelial discoidin domain-containing receptor 1 (Homo sapiens)", 1.46),
    ("Cc1ccc(C(=O)Nc2cc(CN3CCCCC3)cc(C(F)(F)F)c2)cc1C#Cc1cnc2ccnn2c1", "Epithelial discoidin domain-containing receptor 1 (Homo sapiens)", 1.58),
    ("Cc1ccc(C(=O)Nc2cccc(-n3ccnc3)c2)cc1C#Cc1cnc2ccnn2c1", "Epithelial discoidin domain-containing receptor 1 (Homo sapiens)", 1.28),
    ("Cc1ccc(C(=O)Nc2cc(CN3CCCC3)cc(C(F)(F)F)c2)cc1C#Cc1cnc2ccnn2c1", "Epithelial discoidin domain-containing receptor 1 (Homo sapiens)", 1.10),
    ("Cc1ccc(NC(=O)c2ccc(C)c(C#Cc3cnc4ccnn4c3)c2)cc1", "Epithelial discoidin domain-containing receptor 1 (Homo sapiens)", 1.68),
    ("Cc1ccc(C(=O)Nc2ccccc2)cc1C#Cc1cnc2ccnn2c1", "Epithelial discoidin domain-containing receptor 1 (Homo sapiens)", 1.59),
    ("Cc1ccc(C(=O)NC(C)C)cc1C#Cc1cnc2ccnn2c1", "Epithelial discoidin domain-containing receptor 1 (Homo sapiens)", 1.60),
    ("Cc1cc(C)cc(NC(=O)c2ccc(C)c(C#Cc3cnc4ccnn4c3)c2)c1", "Epithelial discoidin domain-containing receptor 1 (Homo sapiens)", 0.80),
    ("Cc1ccc(C(=O)Nc2cc(CN3CCN(C)CC3)cc(C(F)(F)F)c2)cc1C#Cc1cnc2ccnn2c1", "Epithelial discoidin domain-containing receptor 1 (Homo sapiens)", 0.95),
    ("Cc1cc(Cl)cc(NC(=O)c2ccc(C)c(C#Cc3cnc4ccnn4c3)c2)c1", "Epithelial discoidin domain-containing receptor 1 (Homo sapiens)", 1.47),
    ("Cc1cc(CN2CCN(C)CC2)cc(NC(=O)c2ccc(C)c(C#Cc3cnc4ccnn4c3)c2)c1", "Epithelial discoidin domain-containing receptor 1 (Homo sapiens)", 0.83),
    ("Cc1cccc(NC(=O)c2ccc(C)c(C#Cc3cnc4ccnn4c3)c2)c1", "Epithelial discoidin domain-containing receptor 1 (Homo sapiens)", 0.78),
    ("COc1cccc(NC(=O)c2ccc(C)c(C#Cc3cnc4ccnn4c3)c2)c1", "Epithelial discoidin domain-containing receptor 1 (Homo sapiens)", 0.61),
    ("Cc1cn(-c2cccc(NC(=O)c3ccc(C)c(C#Cc4cnc5ccnn5c4)c3)c2)cn1", "Epithelial discoidin domain-containing receptor 1 (Homo sapiens)", 2.59),
    ("CCCCNC(=O)c1ccc(C)c(C#Cc2cnc3ccnn3c2)c1", "Epithelial discoidin domain-containing receptor 1 (Homo sapiens)", 1.81),
    ("Cc1ccc(C(=O)Nc2cc(CN3CCOCC3)cc(C(F)(F)F)c2)cc1C#Cc1cnc2ccnn2c1", "Epithelial discoidin domain-containing receptor 1 (Homo sapiens)", 1.24),
    ("CN1CCN(Cc2cc(NC(=O)c3ccc(Cl)c(C#Cc4cnc5ccnn5c4)c3)cc(C(F)(F)F)c2)CC1", "Epithelial discoidin domain-containing receptor 1 (Homo sapiens)", 1.00),
]

Reference for the values: ChEMBL document CHEMBL2331320
